system name: His-tagged recombinant human Gal-3 (hGal-3) (Homo sapiens (Human))
Sequence (P17931 whole entry): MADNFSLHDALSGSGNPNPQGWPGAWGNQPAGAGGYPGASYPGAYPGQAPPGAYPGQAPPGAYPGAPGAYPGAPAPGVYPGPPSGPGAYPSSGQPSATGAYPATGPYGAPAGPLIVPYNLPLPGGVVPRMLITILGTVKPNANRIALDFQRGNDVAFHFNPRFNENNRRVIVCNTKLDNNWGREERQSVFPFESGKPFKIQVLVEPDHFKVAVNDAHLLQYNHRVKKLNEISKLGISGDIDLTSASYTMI
protocol description: Gal-3 HTRF assay (His-tagged hGal-3 binding to B-ASF);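 also: compounds preincubated 30 min with hGal-3, then 1 h with B-ASF, detection via terbium anti-His antibody and streptavidin d2. Control with B-ASF counts as full signal, omitting B-ASF as background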
experimental conditions: read-out: hGal IC50
pIC50: −log10 of the molar value.
recorded metric: pIC50

> print(dat)
                                     smiles  recorded.metric  value.reported
1  Cc1nc([C@@H]2O[C@H](CO)[C@H](O)[C@H](n3cc(-c4cc(F)c(Br)c(F)c4)nn3)[C@H]2O)n(-c2ccc3nc(C)sc3c2)n1            pIC50            7.39
2  Cc1nc([C@@H]2O[C@H](CO)[C@H](O)[C@H](n3cc(-c4ccc(Cl)c(F)c4)nn3)[C@H]2O)n(-c2cc(Cl)ccc2Br)n1            pIC50            7.40
3  Cc1nc([C@@H]2O[C@H](CO)[C@H](O)[C@H](n3cc(-c4cc(F)c(Br)c(F)c4)nn3)[C@H]2O)n(-c2cc(Cl)cc3cccnc23)n1            pIC50            7.62

a. Cc1nc([C@@H]2O[C@H](CO)[C@H](O)[C@H](n3cc(-c4cc(F)c(Cl)c(Cl)c4)nn3)[C@H]2O)n(-c2cc(Cl)ccc2OC(F)(F)F)n1
b. Cc1nc([C@@H]2O[C@H](CO)[C@H](O)[C@H](n3cc(-c4ccc(Cl)c(F)c4)nn3)[C@H]2O)n(-c2ccc3nc(C(F)(F)F)sc3c2)n1
c. Cc1nc([C@@H]2O[C@H](CO)[C@H](O)[C@H](n3cc(-c4ccc(Br)c(F)c4)nn3)[C@H]2O)n(-c2cc(Cl)cc3ccncc23)n1
stdin: Place the items in sequence of falling pIC50. # output: labels, in the requested order
stdout: a, c, b

The origin of these recorded values is patent US11267811B2.
